- tgt: BTK (Homo sapiens, UniProt Q06187)
- Sequence (Q06187 whole entry): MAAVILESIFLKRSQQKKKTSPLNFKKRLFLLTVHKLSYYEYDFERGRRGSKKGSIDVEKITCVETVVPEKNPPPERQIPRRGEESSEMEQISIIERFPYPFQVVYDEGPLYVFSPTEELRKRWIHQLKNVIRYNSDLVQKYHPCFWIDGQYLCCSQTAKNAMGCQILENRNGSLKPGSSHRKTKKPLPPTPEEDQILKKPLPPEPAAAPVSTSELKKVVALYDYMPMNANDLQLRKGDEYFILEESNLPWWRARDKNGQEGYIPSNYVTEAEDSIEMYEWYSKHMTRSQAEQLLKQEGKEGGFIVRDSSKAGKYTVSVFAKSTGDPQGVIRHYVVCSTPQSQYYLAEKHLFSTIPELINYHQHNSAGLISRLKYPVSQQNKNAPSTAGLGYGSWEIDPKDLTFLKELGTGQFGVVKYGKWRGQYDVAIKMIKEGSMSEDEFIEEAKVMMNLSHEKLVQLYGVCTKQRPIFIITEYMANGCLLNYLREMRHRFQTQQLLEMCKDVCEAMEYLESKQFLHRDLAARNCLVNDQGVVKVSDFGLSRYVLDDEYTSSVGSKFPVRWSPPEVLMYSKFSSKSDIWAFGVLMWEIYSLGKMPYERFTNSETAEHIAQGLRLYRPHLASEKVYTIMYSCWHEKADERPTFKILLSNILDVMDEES
- protocol-details: In vitro BTK kinase assay (PhosphoSens)
- Type: biochemical
- Parameters: purchased SignalChem B10-10H-10
observation-type: pIC50
Would you please state pIC50, meaning minus log10 of the concentration in mol/L, as a bare number?

Request: pIC50 lookup needed for CCC(=O)N1CCCC(n2nc(-c3ccc(Oc4ccccc4)cc3)c3c(N)ncnc32)C1 (stereo not shown) , thanks.
Response: 7.87

----------
- protocol-details: Pharmacokinetics of RC-1 in mice
- Type: in vivo, ICR mice
- condition-set: female, mouse, ip; 20 mg kg^−1, i.p., ICR mice, plasma
observation-type: AUC (µM·h)
Provide only the numeric value, understood in µM·h.

Request: Can you look up the measured AUC of CN(CCCNC(=O)CNc1cccc2c1C(=O)N(C1CCC(=O)NC1=O)C2=O)C(C)(C)C=C(C#N)C(=O)N1CCC[C@@H](n2nc(-c3ccc(Oc4ccccc4)cc3)c3c(N)ncnc32)C1 (stereo partly shown) for me?
Response: 72

----------
- tgt: BTK-NanoLuc fusion (Homo sapiens)
- Construct: host or cells: HEK 293T/17
- protocol-details: NanoBRET BTK in-cell target engagement assay
- Assay type: cell-based
- condition-set: HEK-293 cells, BTK tracer 1.0 µM; experiment of Fig. 3d; read-out: BTK target engagement IC50
observation-type: IC50 (nM)
The figure you give is taken to be in nM; do not add the unit.

Request: What measured IC50 is associated with Nc1ncnc2c1c(-c1ccc(Oc3ccccc3)cc1)nn2C1CCN(CCOCCOCC(=O)Nc2ccc3c(c2)C(=O)N(C2CCC(=O)NC2=O)C3=O)CC1 (stereo not shown) [MT-802, reference compound] on BTK-NanoLuc fusion (Homo sapiens)?
Response: 660

----------
- tgt: BTK-NanoLuc fusion (Homo sapiens, UniProt Q06187)
- Construct: host or cells: HEK 293T/17
- Sequence (Q06187 whole entry, the tested form may be a part): as the sequence (Q06187 whole entry) above
- protocol-details: NanoBRET BTK in-cell target engagement assay
- Type: cell-based
- condition-set: HEK-293 cells, BTK tracer 1.0 µM; experiment of Fig. 3f; read-out: BTK target engagement IC50
observation-type: IC50 (nM)
// units = nM; emit number, no label

Request: Look up IC50: CN(CCCNC(=O)CNc1cccc2c1C(=O)N(C1CCC(=O)NC1=O)C2=O)C(C)(C)C=C(C#N)C(=O)N1CCC[C@@H](n2nc(-c3ccc(Oc4ccccc4)cc3)c3c(N)ncnc32)C1 (stereo partly shown) [RC-1]
Response: 33

----------
- protocol-details: Pharmacokinetics of RC-1 in mice
- Type: in vivo, ICR mice
- condition-set: female, mouse, ip; 20 mg kg^−1, i.p., ICR mice, plasma
observation-type: Cmax (µM)
Record the value in µM, omitting the unit from your answer.

Request: Give the measured Cmax of CN(CCCNC(=O)CNc1cccc2c1C(=O)N(C1CCC(=O)NC1=O)C2=O)C(C)(C)C=C(C#N)C(=O)N1CCC[C@@H](n2nc(-c3ccc(Oc4ccccc4)cc3)c3c(N)ncnc32)C1 (stereo partly shown) [RC-1] .
Response: 20

----------
- tgt: BTK (Homo sapiens)
- protocol-details: In vitro BTK kinase assay (PhosphoSens)
- Type: biochemical
- Parameters: purchased SignalChem B10-10H-10
- condition-set: Supplementary Figure 5; drug concentration 8000 pM; replicates; read-out: Inhibition(%)
Each record is given label 1 if its reported activity at 0.008 µM is strictly below 50%. Records at or above 50% are given label 0.

{"compound": "CN(CCCNC(=O)CNc1cccc2c1C(=O)N(C1CCC(=O)NC1=O)C2=O)CCCC(=O)N1CCCC(n2nc(-c3ccc(Oc4ccccc4)cc3)c3c(N)ncnc32)C1 (stereo not drawn)", "cat": "label 0"}

Request: # check: activity at 0.008 µM < 50% for CC(C)(C)C=C(C#N)C(=O)N1CCCC(n2nc(-c3ccc(Oc4ccccc4)cc3)c3c(N)ncnc32)C1 (stereo not drawn)
Response: label 1

Request: Would you kindly repeat that for CCC(=O)N1CCCC(n2nc(-c3ccc(Oc4ccccc4)cc3)c3c(N)ncnc32)C1 (stereo not drawn) ?
Response: label 0

Request: Another compound to look at: CN(CC=CC(=O)N1CCCC(n2nc(-c3ccc(Oc4ccccc4)cc3)c3c(N)ncnc32)C1)CCCNC(=O)CNc1cccc2c1C(=O)N(C1CCC(=O)NC1=O)C2=O (stereo not drawn)
Response: label 1

Request: Lookup CN(CCCNC(=O)CNc1cccc2c1C(=O)N(C1CCC(=O)NC1=O)C2=O)C(C)(C)C=C(C#N)C(=O)N1CCC[C@@H](n2nc(-c3ccc(Oc4ccccc4)cc3)c3c(N)ncnc32)C1 (stereo partly drawn)
Response: label 1
